assay_system: human GIP receptor (hGIPR) (Homo sapiens)
Construct: expressed in transfected cells
Sequence (P48546 22-466): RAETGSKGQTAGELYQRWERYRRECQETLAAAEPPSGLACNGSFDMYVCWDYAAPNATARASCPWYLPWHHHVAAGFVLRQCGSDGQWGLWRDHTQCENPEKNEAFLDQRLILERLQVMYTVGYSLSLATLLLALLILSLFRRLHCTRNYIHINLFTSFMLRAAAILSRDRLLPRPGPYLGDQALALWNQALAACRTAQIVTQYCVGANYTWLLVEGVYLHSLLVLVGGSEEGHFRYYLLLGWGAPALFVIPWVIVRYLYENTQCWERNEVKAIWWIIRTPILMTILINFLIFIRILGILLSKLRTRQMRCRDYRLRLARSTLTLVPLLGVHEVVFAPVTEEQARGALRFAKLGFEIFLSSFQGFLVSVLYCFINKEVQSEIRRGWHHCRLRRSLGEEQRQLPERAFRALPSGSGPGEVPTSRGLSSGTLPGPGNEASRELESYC
experiment_summary: GIP receptor assay, method A (CRE-luciferase reporter, BHK cells)
Format: cell-based
details: method A, absence of HSA; read-out: hGIPR Potency, no HSA, EC50
Numbered stars: 1 amine (or outer) side, 2 acyl side, 3 side chain; on linkers, the order of the positions; unused ones are H or OH. Square brackets hold non-standard residues; d marks the D form. Side chains are listed from the residue outwards. * marks the point of attachment. C18 diacid = O=C(O)CCCCCCCCCCCCCCCCC(=O)*; γGlu = O=C(O)[C@H](CCC(=O)[*:2])N[*:1]; AEEA = NCCOCCOCC(=O)O; Aib = CC(C)(N)C(=O)O
Recorded measurements of EC50, one per entry
Give the number; pM is assumed, so skip it.

Example results:
substance | EC50 / pM
Y[Aib]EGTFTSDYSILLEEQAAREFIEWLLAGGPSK([AEEA-AEEA-γGlu-C18 diacid])GAPPPSGGGGASELSTAALGRLSAELHRLATLPRTETGSGSP-NH2 [Compound 13] | 2.4
H[Aib]HGTFTSDYSILLEEQAAREFIEWLLAGGPSSGEASHLSTAQTQRLSAELHRLATLPK([AEEA-AEEA-γGlu-C18 diacid])TETGSGSP-NH2 [Compound 84] | 3

Now look at this one.
The value of EC50 recorded for Y[Aib]EGTFTSDYSILLEEQAAREFIEWLLAGGPSSGAGQAPGQAPGASHLSTAQTQRLSAK([AEEA-AEEA-γGlu-C18 diacid])LHRLATLPRTETGSGSP-NH2 [compound 55] when tested on human GIP receptor (hGIPR) (Homo sapiens) reads 3
